From: patent EP0519427A2

Test system: Gliocladium virens Miller, Gidden & Fosteb IFO 6355
experiment: Fungicide activity for wood fungicide (rating of fungi growth on treated wood)
Type: cell-based
recordedConditions: beech specimens dipped 3 min in fungicide solution, 4 weeks culture; rating 0 (no growth) to 3; mean of 6 specimens
Label TRUE when Average rating value, A₅ : Gliocladium virens (IFO 6355) is strictly below 1; at or above that, label FALSE.

CCCCCCCCCNC(=O)C#CI [Example 11, N-(n-Nonyl)-3-iodopropiolamide] = FALSE
CCCCCCNC(=O)C#CI [Example 8, N-(n-Hexyl)-3-iodopropiolamide] = TRUE
CC(C)(C)NC(=O)C#CI [Example 1, N-(tert-Butyl)-3-iodopropiolamide] = TRUE
CCCCCCCCNC(=O)C#CI [Example 10, N-(n-Octyl)-3-iodopropiolamide] = FALSE
CCCCCCCNC(=O)C#CI [Example 9, N-(n-Heptyl)-3-iodopropiolamide] = FALSE
CCC(C)NC(=O)C#CI (centres unmarked) [Example 5, N-(sec-Butyl)-3-iodopropiolamide] = FALSE
CCCCNC(=O)OCC#CI [R, I-C≡CCH₂O-CO-NH(CH₂)₃CH₃, reference compound] = TRUE

Now let's try a different one.
Input line: Please indicate whether the reported Average rating value, A₅ : Gliocladium virens (IFO 6355) of CCCCCCCCCCNC(=O)C#CI [Example 2, N-(n-Decyl)-3-iodopropiolamide] is strictly below 1.
Output line: FALSE

====

Test system: Gliocladium virens Miller, Gidden & Fosteb IFO 6355
experiment: Fungicide activity for wood fungicide (rating of fungi growth on treated wood)
Type: cell-based
recordedConditions: beech specimens dipped 3 min in fungicide solution, 4 weeks culture; rating 0 (no growth) to 3; mean of 6 specimens
Provide the recorded Average rating value, A₅ : Gliocladium virens (IFO 6355) for the entries that follow.
Numbers only.

Some molecules with recorded Average rating value, A₅ : Gliocladium virens (IFO 6355):
CCCCNC(=O)C#CI [Example 4, N-(n-Butyl)-3-iodopropiolamide] = 1.0
CC(C)CNC(=O)C#CI [Example 6, N-Isobutyl-3-iodopropiolamide] = 0.0

Turning now to a further record.
Entry under test: CCCCCNC(=O)C#CI [Example 7, N-(n-Pentyl)-3-iodopropiolamide] . Its Average rating value, A₅ : Gliocladium virens (IFO 6355) was 1.8

====

Tested on: Candida albicans IFO-0583
experiment: Antibacterial and antifungal activity, paper disc method
Type: cell-based
recordedConditions: IFO0583, paper disc d=8 mm dipped in 1,000 µg/ml solution, YNB agar medium, read-out: diameter of the growth inhibition circle, Can.(IFO-0583)
Provide the recorded zone of inhibition at 1000 µg/mL for the entries that follow.

Some molecules with recorded zone of inhibition at 1000 µg/mL:
CCCCNC(=O)C#CI [Example 4, N-(n-Butyl)-3-iodopropiolamide] = 21 to 40 mm
O=C(C#CI)Nc1ccc(Cl)cc1Cl [Example 25] = 21 to 40 mm
O=C(C#CI)N1CCCCC1 [Example 19, 1-(3-Iodopropioloyl)piperidine] = 21 to 40 mm

For every item in the list below, what is its measured zone of inhibition at 1000 µg/mL?
1. O=C(C#CI)Nc1cccc(C(F)(F)F)c1 [Example 26]
2. CC1COCC(C)N1C(=O)C#CI (stereo not drawn) [Example 20]
3. CCCCCCCCCNC(=O)C#CI [Example 11, N-(n-Nonyl)-3-iodopropiolamide]
4. O=C(C#CI)NCCc1ccccc1 [Example 16, N-(2-Phenylethyl)-3-iodopropiolamide]
5. O=C(C#CI)Nc1ccc(Cl)cc1 [Example 24, N-(4-Chlorophenyl)-3-iodopropiolamide]
6. O=C(C#CI)Nc1cccc(F)c1 [Example 17, N-(3-Fluorophenyl)-3-iodopropiolamide]

Output line:
1. 21 to 40 mm
2. 9 to 20 mm
3. 9 to 20 mm
4. 21 to 40 mm
5. 21 to 40 mm
6. 21 to 40 mm
